B1: H2-Kb / B14 (parent)
chain 1: GEQVEQRPPHLSVREGDSAVIICTYTDPNSYYFFWYKQEPGAGLQLLMKVFSSTEINEGQGFTVLLNKKDKQLSLNLTAAHPGDSAVYFCAVSARGNMGYKLTFGTGTSLLVDP
chain 2: GGIITQTPKFLIGQEGQKLTLKCQQNFNHDTMYWYRQDSGKGLRLIYYSITENDLQKGDLSEGYDASREKKSSFSLTVTSAQKNEMAVFLCASSMGQGASDYTFGSGTRLLVI
chain 3: not shown
chain 4: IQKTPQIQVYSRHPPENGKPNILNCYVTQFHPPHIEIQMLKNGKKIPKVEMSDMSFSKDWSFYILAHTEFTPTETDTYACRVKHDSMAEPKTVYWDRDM
chain 5: SIINFEKL

Variants of: B1
Assay: % of reporter cells activated (NFAT-GFP), raw; further: test concentration or dose not given here
Conditions: with B14; scale: % of reporter cells activated
Quantity Name: ratio to parent

[[record]]
mutation_notation = "chain 5 E6V"
recorded_measurement = 1.69


(I) chain 5 E6M
(II) chain 5 N4T
(III) chain 5 N4I
(IV) chain 5 S1V
Task item: I would appreciate it if you could sort these 4 variants by ratio to parent, starting from the smallest number. List the labels in the requested order.
Reply: III, I, II, IV

(P) chain 5 K7H
(Q) chain 5 N4F
(R) chain 5 K7C
(S) chain 5 S1N
Task item: Sort the 4 variants by ratio to parent; largest first, smallest last. Rank the items, then write their labels in that order.
Reply: R, Q, P, S

(P) chain 5 I3R
(Q) chain 5 N4V
Task item: I'd appreciate it if you could identify which of P and Q has the greater ratio to parent. Mark your selection by writing its label.
Reply: Q
